target: His-Avi-TEV-mSTING (138-341) mouse wild-type protein (Mus musculus, UniProt Q3TBT3); construct: made in house; host or cells: E. coli Rosetta 2 (DE3), co-expressed with BirA (1-321); experiment: Protein thermal shift assay, STING C-terminal binding domain protein; details: test compound final concentration 0.5 mM
Sequence (Q3TBT3 with tags, fused parts or gaps limits assumed): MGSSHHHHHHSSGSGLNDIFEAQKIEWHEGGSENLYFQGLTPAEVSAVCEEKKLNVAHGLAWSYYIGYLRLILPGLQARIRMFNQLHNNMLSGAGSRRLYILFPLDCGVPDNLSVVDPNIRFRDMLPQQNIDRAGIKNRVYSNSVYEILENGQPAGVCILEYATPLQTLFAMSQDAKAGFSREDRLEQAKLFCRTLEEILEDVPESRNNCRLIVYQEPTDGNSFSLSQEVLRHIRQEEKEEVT
assayReadout: ΔTm Ms-WT (°C)

- compound: "NCCNc1nc(N)c2ncn([C@@H]3O[C@@H]4COP(=O)(S)O[C@H]5[C@@H](F)[C@H](n6cc7c8c(ncnc86)NCCC7)O[C@@H]5COP(=O)(S)O[C@@H]3[C@@H]4F)c2n1 (single isomer, unassigned) [45b]"
  assayReadout: "ΔTm Ms-WT"
  dataValue: 12.1
- compound: "O=C(CO)NCCn1cnc2c(ncn2[C@@H]2O[C@@H]3COP(=O)(S)O[C@H]4[C@@H](O)[C@H](n5cc6c7c(ncnc75)NCCC6)O[C@@H]4COP(=O)(S)O[C@@H]2[C@@H]3O)c1=O (single isomer, unassigned)"
  assayReadout: "ΔTm Ms-WT"
  dataValue: 13.2
- compound: "NCCNc1nc(N)c2ncn([C@@H]3O[C@@H]4COP(=O)(S)O[C@H]5[C@@H](F)[C@H](n6cc7c8c(ncnc86)NCCC7)O[C@@H]5COP(=O)(S)O[C@@H]3[C@@H]4O)c2n1 (single isomer, unassigned) [37b]"
  assayReadout: "ΔTm Ms-WT"
  dataValue: 12.3
- compound: "NCCNc1nc(N)c2ncn([C@@H]3O[C@@H]4COP(=O)(S)O[C@H]5[C@@H](O)[C@H](n6cc7c8c(ncnc86)NCCC7)O[C@@H]5COP(=O)(S)O[C@@H]3[C@@H]4F)c2n1 (single isomer, unassigned) [42b]"
  assayReadout: "ΔTm Ms-WT"
  dataValue: 10.6
- compound: "O=C(CO)NCCn1cnc2c(ncn2[C@@H]2O[C@@H]3COP(=O)(S)O[C@H]4[C@@H](F)[C@H](n5cc6c7c(ncnc75)NCCC6)O[C@@H]4COP(=O)(S)O[C@@H]2[C@@H]3O)c1=O (single isomer, unassigned) [36b]"
  assayReadout: "ΔTm Ms-WT"
  dataValue: 19.3
- compound: "O=c1[nH]cnc2c1ncn2[C@@H]1O[C@@H]2COP(=O)(S)O[C@H]3[C@@H](O)[C@H](n4cc5c6c(ncnc64)NCCC5)O[C@@H]3COP(=O)(S)O[C@@H]1[C@@H]2O (single isomer, unassigned) [25b]"
  assayReadout: "ΔTm Ms-WT"
  dataValue: 15.8
- compound: "NCCn1cnc2c(ncn2[C@@H]2O[C@@H]3COP(=O)(S)O[C@H]4[C@@H](F)[C@H](n5cc6c7c(ncnc75)NCCC6)O[C@@H]4COP(=O)(S)O[C@@H]2[C@@H]3O)c1=O (single isomer, unassigned) [35b]"
  assayReadout: "ΔTm Ms-WT"
  dataValue: 14.2
- compound: "O=P1(S)OC[C@H]2O[C@@H](n3cc4c5c(ncnc53)NCCC4)[C@H](O)[C@@H]2OP(=O)(S)OC[C@H]2O[C@@H](n3cnc4c(CO)ncnc43)[C@H](O1)[C@@H]2O (single isomer, unassigned) [17b]"
  assayReadout: "ΔTm Ms-WT"
  dataValue: 12.6
- compound: "Nc1nc2c(ncn2[C@@H]2O[C@@H]3COP(=O)(S)O[C@H]4[C@@H](O)[C@H](n5cc6c7c(ncnc75)NCCC6)O[C@@H]4COP(=O)(S)O[C@@H]2[C@@H]3O)c(=O)[nH]1 (single isomer, unassigned)"
  assayReadout: "ΔTm Ms-WT"
  dataValue: 14.9

Origin of the recorded values: patent US12370263B2
